Data provenance is patent US11542293B2.

List of EC50 values.
# System: THP1-Dual cells (ISG54 promoter Lucia luciferase reporter)
# Assay name: THP-1 Dual Lucia Reporter Gene Assay
# Assay type: cell-based, human
# Condition description: Lucia luciferase signal induction, 20 hours at 37° C., read-out: Cellular THP 1 EC50
Measured quantity: EC50

Compound | Measurement target | Experimental result
Nc1nc2c(ncn2[C@@H]2O[C@@H]3COP(=O)(S)O[C@@H]4[C@@H](COP(=O)(S)O[C@@H]2[C@@H]3O)C[C@@H](Oc2ccncn2)[C@@H]4F)c(=O)[nH]1 (single isomer, unassigned) [Compound I-39b] | THP1-Dual cells (ISG54 promoter Lucia luciferase reporter) | < 1000 nM
Nc1nc2c(ncn2[C@@H]2O[C@@H]3COP(=O)(S)O[C@H]4C[C@H](Nc5ncncc5F)C[C@@H]4COP(=O)(S)O[C@@H]2[C@@H]3O)c(=O)[nH]1 (some centres unmarked) [Compound I-34b] | THP1-Dual cells (ISG54 promoter Lucia luciferase reporter) | 1000 to 10000 nM
